Molecular target: UniProtKB Q9NYK1
Assay: NF-κB induction, human TLR7-specific reporter gene assay
Assay type: cell-based
Conditions: human TLR7 reporter gene assay
Measurement type: TLR7-agonistic activity, result in words

INSERT INTO measurements (molecule, experimental_value) VALUES
  ('CCCCCCCCCCCCCCCC(=O)N(CC)Cc1nc2c(N)nc3ccccc3c2n1CC(C)(C)O [Compound 5]', 'bereft of activity'),
  ('Clc1nc2ccccc2c2c1nnn2Cc1ccccc1 [Compound 55]', 'completely inactive'),
  ('CCN(Cc1nc2c(N)nc3ccccc3c2n1CC(C)(C)O)C(C)=O [Compound 4]', 'bereft of activity'),
  ('CCCCCc1nc2c(-c3ccccc3)nc3ccccc3c2n1Cc1ccccc1 [Compound 47]', 'completely inactive'),
  ('CCN(CCOCCOCCN)Cc1nc2c(N)nc3ccccc3c2n1CC(C)(C)O [Compound 11]', 'completely inactive'),
  ('CCCCc1nc2cnc3ccccc3c2n1Cc1ccccc1 [Compound 50]', 'completely inactive'),
  ('CCCNC(=O)n1c(=O)n(Cc2ccccc2)c2c3ccccc3ncc21 [Compound 57]', 'completely inactive');

====

Target: human TLR7 (Homo sapiens, UniProt Q9NYK1)
Sequence (Q9NYK1 27-1049): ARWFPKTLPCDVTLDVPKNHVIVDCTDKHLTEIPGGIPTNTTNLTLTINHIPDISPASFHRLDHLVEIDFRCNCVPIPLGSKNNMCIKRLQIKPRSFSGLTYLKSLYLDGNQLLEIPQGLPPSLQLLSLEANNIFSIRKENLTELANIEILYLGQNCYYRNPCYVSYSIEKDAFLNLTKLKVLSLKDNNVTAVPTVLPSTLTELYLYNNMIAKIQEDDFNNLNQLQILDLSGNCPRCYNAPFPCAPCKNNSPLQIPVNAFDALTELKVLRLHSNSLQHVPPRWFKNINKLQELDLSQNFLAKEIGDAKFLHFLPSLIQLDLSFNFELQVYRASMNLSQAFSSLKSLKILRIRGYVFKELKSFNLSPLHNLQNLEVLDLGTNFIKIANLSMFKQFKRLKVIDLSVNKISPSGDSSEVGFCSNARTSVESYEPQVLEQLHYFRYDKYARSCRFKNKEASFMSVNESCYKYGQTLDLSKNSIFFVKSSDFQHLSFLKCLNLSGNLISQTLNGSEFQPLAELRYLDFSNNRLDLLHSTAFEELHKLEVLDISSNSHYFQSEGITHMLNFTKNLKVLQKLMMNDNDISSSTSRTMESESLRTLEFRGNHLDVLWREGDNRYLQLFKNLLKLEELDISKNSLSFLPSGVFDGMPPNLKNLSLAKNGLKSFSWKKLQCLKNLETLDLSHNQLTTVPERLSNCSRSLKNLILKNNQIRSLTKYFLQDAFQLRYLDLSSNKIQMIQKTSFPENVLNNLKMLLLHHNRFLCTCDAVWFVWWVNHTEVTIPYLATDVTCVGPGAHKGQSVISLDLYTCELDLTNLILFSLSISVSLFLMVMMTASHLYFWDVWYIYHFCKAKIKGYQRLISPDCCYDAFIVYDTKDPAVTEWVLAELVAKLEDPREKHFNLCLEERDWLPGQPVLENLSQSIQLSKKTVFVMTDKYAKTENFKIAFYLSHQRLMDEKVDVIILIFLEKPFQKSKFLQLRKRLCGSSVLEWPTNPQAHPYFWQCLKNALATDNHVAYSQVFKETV
Assay: NF-κB induction, human TLR7-specific reporter gene assay
Measurement type: EC50

INSERT INTO measurements (molecule, experimental_value) VALUES
  ('CC(C)Cn1cnc2c(N)nc3ccccc3c21 [Compound 1, Imiquimod, reference compound]', '~2000 nM');

====

Biological target: human TLR7 (Homo sapiens, UniProt Q9NYK1)
Experiment: NF-κB induction, human TLR7-specific reporter gene assay
Type: cell-based
Conditions: human TLR7 reporter gene assay
Measurement type: TLR7-agonistic activity, result in words

INSERT INTO assay_data (cpd_smiles, experimental_value) VALUES
  ('CCCCCc1nc2c(Cl)nc3ccccc3c2n1Cc1ccccc1', 'completely inactive'),
  ('C#CCCc1nc2c(N)nc3ccccc3c2n1Cc1ccccc1', 'decrease in potency'),
  ('CCCCCc1nc2c(O)nc3ccccc3c2n1Cc1ccccc1', 'completely inactive'),
  ('Nc1nc2ccccc2c2c1nnn2Cc1ccccc1', 'completely inactive'),
  ('C=CCCc1nc2c(N)nc3ccccc3c2n1Cc1ccccc1', 'decrease in potency');
